B1: 5KPH (parent)
chain: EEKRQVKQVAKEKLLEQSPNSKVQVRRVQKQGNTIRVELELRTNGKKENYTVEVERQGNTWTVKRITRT

variants of: B1; experiment: folding stability dG (cDNA display proteolysis); higher = more stable; conditions: PBS, room temperature
quantity: folding stability dG (kcal/mol)
Answer in kcal/mol, number only, no unit symbol.

Example entries and their recorded answers appear below.
monomer sequence: EEKRQVKQVAKEKLLEQSPNSKVQVRRVQKQGNTIRVELELRTNGKKEVYTVEVERQGNTWTVKRITRT
quantity: folding stability dG
unit info: kcal/mol
endpoint value: 4.07
//
monomer sequence: EEKRQVKQVAKEKLLEWSPNSKVQVRRVQKQGNTIRVELELRTNGKKENYTVEVERQGNTWTVKRITRT
quantity: folding stability dG
unit info: kcal/mol
endpoint value: 3.6
//
monomer sequence: EEKRQVKQVAKEKLLEQSPNSKVQVRRVQKQGNTIRVELELRTNGKKENYTVEVRRQGNTWTVKRITRT
quantity: folding stability dG
unit info: kcal/mol
endpoint value: 3.1
//
monomer sequence: EEKRQVKQVAKEKLLEQSPNSKVQVRRVQKQGNTIRVELELRTNGEKENYTVEVERQGNTWTVKRITRT
quantity: folding stability dG
unit info: kcal/mol
endpoint value: 3.44
//
monomer sequence: EEKRQVKQVAKEKLLEQSPNSKVQVRRVQKQGNTIRVELELRFNGKKENYTVEVERQGNTWTVKRITRT
quantity: folding stability dG
unit info: kcal/mol
endpoint value: 3.87
//
monomer sequence: EEKRQVKQVAKEKLLEQSPNSKVQVRRVQKQGNTIRVELELRTNGKKENYTMEVERQGNTWTVKRITRT
quantity: folding stability dG
unit info: kcal/mol
endpoint value: 3.22
//
monomer sequence: EEKRQVKQVAKEKLLEQSPNSKVQVRRVQKQGNTIRVELELRTNGKKENYTVEVERQGNTWTVKRICRT
quantity: folding stability dG
unit info: kcal/mol
endpoint value: 3.68
//
monomer sequence: EEKRQVKQVAKEKLLEQSPNSKVQVRRVQKQGNTIRVELELRTNGKKENYTVEVERQGETWTVKRITRT
quantity: folding stability dG
unit info: kcal/mol
endpoint value: 3.92
//
monomer sequence: DEKRQVKQVAKEKLLEQSPNSKVQVRRVQKQGNTIRVELELRTNGKKENYTVEVERQGNTWTVKRITRT
quantity: folding stability dG
unit info: kcal/mol
endpoint value: 3.52
//
monomer sequence: EEKRQVKQVAKEKLLEQSPNSKVQVRRVQKQGFTIRVELELRTNGKKENYTVEVERQGNTWTVKRITRT
quantity: folding stability dG
unit info: kcal/mol
endpoint value: 3.67

Give a short answer stating reported folding stability dG for EEKRQVKQVAKEKLLEQSPNSKVQVRRVQKQGNTSRVELELRTNGKKENYTVEVERQGNTWTVKRITRT .
3.37

Give a short answer stating reported folding stability dG for EEKRQVKQVAKEKLLEQSPNSKVQVRRVQKQGNTIRVELELRTNGKKENYTVEVERQHNTWTVKRITRT .
3.4

Give a short answer stating reported folding stability dG for EEKRQVKQVAKEKLLEQSPNSKVQVRRVQKPGNTIRVELELRTNGKKENYTVEVERQGNTWTVKRITRT .
1.87

Give a short answer stating reported folding stability dG for EEKRQVKQVAKEKLLEQSPNSKVQVRRVQKQGNIIRVELELRTNGKKENYTVEVERQGNTWTVKRITRT .
3.97

Give a short answer stating reported folding stability dG for EEKRQVKQVAKEKWLEQSPNSKVQVRRVQKQGNTIRVELELRTNGKKENYTVEVERQGNTWTVKRITRT .
2.29

Give a short answer stating reported folding stability dG for EEKRQVKQVAKEKLLEQSPNSKVQVRRVQKQGNTIRVELELRTNGKKENYTVEVQRQGNTWTVKRITRT .
3.7

Give a short answer stating reported folding stability dG for EEKRQVKQVAKEKLREQSPNSKVQVRRVQKQGNTIRVELELRTNGKKENYTVEVERQGNTWTVKRITRT .
3.33
